Test system: MCF7 breast
measurement.protocol: NCI tumour cell line growth inhibition, 48 h
Where a SMILES comes first, the peptide text is derived from it. The star is where a group is joined. Boc = CC(C)(C)OC(=O)*; Bn = c1ccc(C*)cc1

>  <compound>
COC(=O)C(CC(C)C)NC(=O)C(C)NC(=O)C(Cc1ccc(OCc2ccccc2)cc1)NC(=O)C(COCc1ccccc1)NC(=O)OC(C)(C)C (centres undefined) (Boc-S(Bn)Y(Bn)AL-OMe; configuration not given here)

>  <TGI>
> 100 µM

$$$$
>  <compound>
CCOC1(OCC)C2C=CC1C(COS(=O)(=O)c1ccc(C)cc1)C2COS(=O)(=O)c1ccc(C)cc1 (centres undefined)

>  <TGI>
> 100 µM

$$$$
>  <compound>
CC(C)NC(=O)OCc1c(COC(=O)NC(C)C)c(-c2cc[n+](COC(=O)C3CC3)cc2)n2c1CCC2

>  <TGI>
> 100 µM

$$$$
>  <compound>
CCn1c(-c2ccccc2)cs/c1=N\C(P(=O)(O)O)P(=O)(O)O

>  <TGI>
> 100 µM

$$$$
>  <compound>
N#Cc1c(N)nc(N2CCOCC2)c(C#N)c1-c1ccncc1

>  <TGI>
> 100 µM

$$$$
>  <compound>
O=C(Nc1ccc(Nc2ccncc2)cc1)c1ccc([N+](=O)[O-])cc1

>  <TGI>
20.5 µM

$$$$
>  <compound>
Cc1ccc(S(=O)(=O)Nc2ccccc2C=O)cc1

>  <TGI>
35.2 µM

$$$$
>  <compound>
c1ccc(-c2nnc(-c3ccccn3)s2)nc1

>  <TGI>
> 100 µM

$$$$
>  <compound>
O=C1c2ccccc2C(=O)c2c(NCC(O)CO)ccc(NCC(O)CO)c21 (centres undefined)

>  <TGI>
> 100 µM

$$$$

----------
Tested on: CAKI-1 renal
measurement.protocol: NCI tumour cell line growth inhibition, 48 h
property.label: GI50

>  <compound>
CC/C=C\C[C@H](O)C/C=C1/C(=O)C(Cl)=C[C@@H]1C/C=C\CCCC(=O)OC

>  <property.label>
GI50

>  <result.value>
523 nM

$$$$
>  <compound>
CNCc1ccccc1-c1csc([C@@H](C)Nc2nc(C)nc3cc(OC)c(OC)cc23)c1

>  <property.label>
GI50

>  <result.value>
1280 nM

$$$$
>  <compound>
CC1=C(C(=O)Nc2ccc(F)c(Cl)c2)C(c2ccccc2O)NC(=S)N1 (stereo unspecified)

>  <property.label>
GI50

>  <result.value>
45800 nM

$$$$
>  <compound>
CCCCOC(=O)CNC(=O)OC/C=C/C#CC#C/C=C/COC(=O)NCC(=O)OCCCC

>  <property.label>
GI50

>  <result.value>
> 100000 nM

$$$$
>  <compound>
COc1ccc(OC)c2c1[nH]c(=O)c1c3ccccc3cn21

>  <property.label>
GI50

>  <result.value>
1090 nM

$$$$
>  <compound>
NC(=O)/C=C/C(=O)c1c(Cl)cccc1Cl

>  <property.label>
GI50

>  <result.value>
971 nM

$$$$

----------
Tested on: DMS 273 small cell lung
measurement.protocol: NCI tumour cell line growth inhibition, 48 h
property.label: TGI (µM)

>  <compound>
[N-]=[N+]=NC1(Cc2ccccc2)C(=O)c2cccc3c2N(CCC3)C1=O (configuration not stated)

>  <qualifier.operator>
>

>  <result.value>
100

$$$$
>  <compound>
COc1cc2c(cc1OC)C(CC1=C(c3ccccc3)CN3CCc4cc(OC)c(OC)cc4C3C1)NCC2 (configuration not stated)

>  <qualifier.operator>
=

>  <result.value>
31.6

$$$$
>  <compound>
CC(=O)CCn1ncc(Cl)c(Cl)c1=O

>  <qualifier.operator>
=

>  <result.value>
32

$$$$
>  <compound>
Cc1c2n(c(=O)[nH]c1=O)C1OC(CO)C(O2)C1O (configuration not stated)

>  <qualifier.operator>
>

>  <result.value>
100

$$$$
>  <compound>
CN(C)CCNC(=O)c1cccc2ccc(-c3ccc(O)cc3)nc12

>  <qualifier.operator>
=

>  <result.value>
6.07

$$$$
>  <compound>
CCOC(=O)c1cnc2c(ccc3[nH]n(C)nc32)c1=O

>  <qualifier.operator>
=

>  <result.value>
73.4

$$$$
>  <compound>
c1ccc2cc(-c3cc4ccccc4s3)ccc2c1

>  <qualifier.operator>
>

>  <result.value>
100

$$$$
>  <compound>
O=C(Nc1ccn(CCO)c(=O)n1)c1ccccc1

>  <qualifier.operator>
>

>  <result.value>
100

$$$$
>  <compound>
O=C(CCN(C(=O)O)S(=O)(=O)c1ccc(NC(=O)c2ccccc2)cc1)Nc1ccccc1

>  <qualifier.operator>
>

>  <result.value>
82.4

$$$$
>  <compound>
O=C1c2ccccc2C(=O)N1CCn1ccc(NC(c2ccccc2)(c2ccccc2)c2ccccc2)nc1=O

>  <qualifier.operator>
=

>  <result.value>
36.6

$$$$
>  <compound>
CCCCCCCCCCCCCC(=O)OCC(C[As](=O)(O)O)OC(=O)CCCCCCCCCCCCC (configuration not stated)

>  <qualifier.operator>
>

>  <result.value>
100

$$$$
>  <compound>
O=c1/c(=C/c2ccccc2[N+](=O)[O-])sc2nnc(-c3ccco3)n12

>  <qualifier.operator>
>

>  <result.value>
100

$$$$

----------
System: UACC-62 melanoma
measurement.protocol: NCI tumour cell line growth inhibition, 48 h

>  <compound>
O=C(Nc1ccccc1)c1cc(S(=O)(=O)NC2=NC(c3ccccc3)c3cc(Cl)ccc3N2)c(SSc2cc(Cl)c(C(=O)Nc3ccccc3)cc2S(=O)(=O)NC2=NC(c3ccccc3)c3cc(Cl)ccc3N2)cc1Cl (centres undefined)

>  <target.of.assay>
UACC-62 melanoma

>  <TGI>
> 100 µM

$$$$
>  <compound>
CCC12CCCN(Cc3ccccc3)C1c1c(n(C)c3ccccc13)CC2 (centres undefined)

>  <target.of.assay>
UACC-62 melanoma

>  <TGI>
> 253 µM

$$$$
>  <compound>
Cc1ccc(-c2c(C#N)c(-c3ccc(C)cc3)n(NS(=O)(=O)c3ccccc3)c(=O)c2C#N)cc1

>  <target.of.assay>
UACC-62 melanoma

>  <TGI>
> 100 µM

$$$$
>  <compound>
COc1cccc(C(=O)Oc2ccc(OS(=O)(=O)c3ccc(C)cc3)cc2)c1C#N

>  <target.of.assay>
UACC-62 melanoma

>  <TGI>
> 100 µM

$$$$

----------
Test system: RXF 393 renal
measurement.protocol: NCI tumour cell line growth inhibition, 48 h
Listing: GI50 of selected compounds

>  <smiles.record>
N#Cc1c(N)nc(N2CCOCC2)c(C#N)c1-c1ccncc1

>  <target.of.assay>
RXF 393 renal

>  <GI50>
> 100000 nM

$$$$
>  <smiles.record>
COc1ccc(/C=C\[N+](=O)[O-])cc1OC

>  <target.of.assay>
RXF 393 renal

>  <GI50>
1810 nM

$$$$
>  <smiles.record>
Cc1cc(Nc2ccc(NC(=O)c3ccc(Nc4ccnc5ccccc45)cc3)cc2)nc(N)n1

>  <target.of.assay>
RXF 393 renal

>  <GI50>
2760 nM

$$$$
>  <smiles.record>
c1ccc(-c2nnc(-c3ccccn3)s2)nc1

>  <target.of.assay>
RXF 393 renal

>  <GI50>
> 100000 nM

$$$$
>  <smiles.record>
Cc1cc(C)c2c(n1)sc1c(Nc3ccc(Cl)cc3)ncnc12

>  <target.of.assay>
RXF 393 renal

>  <GI50>
19.5 nM

$$$$
>  <smiles.record>
Cn1c(I)c(C#CCO[Si](C)(C)C(C)(C)C)c(=O)[nH]c1=O

>  <target.of.assay>
RXF 393 renal

>  <GI50>
18800 nM

$$$$

----------
Tested on: UACC-257 melanoma
measurement.protocol: NCI tumour cell line growth inhibition, 48 h

>  <molecule>
O=[N+]([O-])c1ccc2[nH]c(=S)[nH]c(=S)c2c1

>  <TGI>
> 100 µM

$$$$
>  <molecule>
COC(=O)c1ccc2c(c1)nc(NC(=O)c1ccccc1)n2CCCc1ccccc1

>  <TGI>
> 100 µM

$$$$
>  <molecule>
O=C1c2cccc3c2C(=O)c2c(cccc21)OCCOCCOCCOCCO3

>  <TGI>
> 100 µM

$$$$
>  <molecule>
CC(C)NC(=O)OCc1c(COC(=O)NC(C)C)c(-c2cc[n+](COC(=O)C3CC3)cc2)n2c1CCC2

>  <TGI>
> 100 µM

$$$$
>  <molecule>
O=C1c2ccccc2C(=O)N1CCn1ccc(NC(c2ccccc2)(c2ccccc2)c2ccccc2)nc1=O

>  <TGI>
34.7 µM

$$$$
>  <molecule>
CCCCCCNc1n[nH]c(=O)c2c1nnn2Cc1ccccc1

>  <TGI>
> 100 µM

$$$$
>  <molecule>
O=C(Nc1ccn(CCO)c(=O)n1)c1ccccc1

>  <TGI>
> 100 µM

$$$$
>  <molecule>
Cn1cc(C2=C(c3ccc(N)cc3)C(=O)NC2=O)c2ccccc21

>  <TGI>
> 25 µM

$$$$
>  <molecule>
O=c1cc[nH]c(=O)[nH]1

>  <TGI>
> 1000 µM

$$$$
>  <molecule>
CC12C/C(=C\c3ccccc3)C(=O)C3C1CCCC32

>  <TGI>
> 100 µM

$$$$
>  <molecule>
COc1cc(OCc2cccc(-c3ccc(C(O)c4nccs4)cc3)c2C)cc(OC)c1C=O (configuration not stated)

>  <TGI>
5.11 µM

$$$$
>  <molecule>
O=C1Nc2cccc(Cl)c2/C1=C\c1c(Cl)nc2n1CCS2

>  <TGI>
> 100 µM

$$$$
>  <molecule>
Cc1ccc(-n2cnc(C(=N)C#N)c2N)cc1

>  <TGI>
> 100 µM

$$$$
>  <molecule>
CC(=O)c1ccccc1NP(=O)(c1ccccc1)c1ccccc1

>  <TGI>
> 100 µM

$$$$
>  <molecule>
CO/N=C(/C)c1cccc(Nc2cc(-n3nnc4ccccc43)nc3ccccc23)c1

>  <TGI>
> 100 µM

$$$$
>  <molecule>
O=c1oc2ccc3ccccc3c2cc1-c1nc2ccccc2s1

>  <TGI>
> 100 µM

$$$$
>  <molecule>
COC[C@@H](N=CC(C)(C)C)C(C)C

>  <TGI>
> 100 µM

$$$$
>  <molecule>
Cc1[nH]c(=O)nc2nc3ccc(Cl)cc3c(NCCNCCO)c12

>  <TGI>
25 µM

$$$$
>  <molecule>
c1ccc(N=C(N2CCCC2)N(CCN2CCCC2)c2ccccc2)cc1

>  <TGI>
67.6 µM

$$$$
>  <molecule>
CO/N=C(\C(=O)OC(=NC1CCCCC1)NC1CCCCC1)c1csc(NC(c2ccccc2)(c2ccccc2)c2ccccc2)n1

>  <TGI>
> 10 µM

$$$$
>  <molecule>
Cc1ccc(S(=O)(=O)N(C=O)N=C2CCN(Cc3ccccc3)CC2)cc1

>  <TGI>
> 100 µM

$$$$
>  <molecule>
CC(C)(C)OC(=O)NC1CCCCC1NC(=O)C(=O)NC1CCCCC1NC(=O)OC(C)(C)C (configuration not stated)

>  <TGI>
> 100 µM

$$$$
